The reported numbers originate from ChEMBL document CHEMBL1909294.

Entries below carry reported HepSE_hepatitis on Hepatotoxicity.

                                   compound  result
0  CCOC(=O)[C@H](CCc1ccccc1)N[C@@H](C)C(=O)N1Cc2cc(OC)c(OC)cc2C[C@H]1C(=O)O       1

Bench note: what HepSE_hepatitis did CNCCC(Oc1ccc(C(F)(F)F)cc1)c1ccccc1 (stereo not drawn) show?
1

Bench note: what HepSE_hepatitis did `CCCCCNC(=N)N/N=C/c1c[nH]c2ccc(OC)cc12` show?
1

Bench note: what HepSE_hepatitis did CC(COc1ccccc1)N(CCCl)Cc1ccccc1 (stereo not drawn) show?
0

###

System: Hepatotoxicity
Conditions: Liver
ATTRIBUTE_MEASURED: HepSE_jaundice
Hey, just send me the number, nothing else.

>>> df
                                   molecule  measured_number
0            Cc1cccc([C@H](C)c2cnc[nH]2)c1C                0
1  CC(C)(C(=O)O)c1ccc(C(O)CCCN2CCC(C(O)(c3ccccc3)c3ccccc3)CC2)cc1 (stereo not given) [FEXOFENADINE]                0
2  CN1[C@@H]2C[C@@H](OC(=O)[C@H](CO)c3ccccc3)C[C@H]1[C@@H]1O[C@@H]12                0
3  CC(C)n1c(/C=C/C(O)CC(O)CC(=O)O)c(-c2ccc(F)cc2)c2ccccc21 (stereo not given)                1
4                      CC(=O)OCC[N+](C)(C)C                0

Bench note: what HepSE_jaundice did CN(C)CCOC(c1ccccc1)c1ccccc1 [DIPHENHYDRAMINE] show?
0

Bench note: what HepSE_jaundice did `O=C(O)c1cc(-c2ccc(F)cc2F)ccc1O` show?
1

Bench note: what HepSE_jaundice did `Cc1ccc(C(=O)c2cc(O)c(O)c([N+](=O)[O-])c2)cc1` show?
0

Bench note: what HepSE_jaundice did O=C(O)COCCN1CCN(C(c2ccccc2)c2ccc(Cl)cc2)CC1 (stereo not given) show?
1

Bench note: what HepSE_jaundice did OC(CCN1CCCCC1)(c1ccccc1)C1CCCCC1 (stereo not given) show?
0

Bench note: what HepSE_jaundice did CC1(C)NC(=O)N(c2ccc([N+](=O)[O-])c(C(F)(F)F)c2)C1=O [NILUTAMIDE] show?
0

Bench note: what HepSE_jaundice did `CN1C(=O)CN=C(c2ccccc2)c2cc(Cl)ccc21` show?
1

Bench note: what HepSE_jaundice did `Clc1ccc2nsnc2c1NC1=NCCN1` show?
1

Bench note: what HepSE_jaundice did `COc1cc(Cc2cnc(N)nc2N)cc(OC)c1OC` show?
1

Bench note: what HepSE_jaundice did CCCN[C@H]1CCc2nc(N)sc2C1 [PRAMIPEXOLE] show?
0

Bench note: what HepSE_jaundice did `CN[C@H]1CC[C@@H](c2ccc(Cl)c(Cl)c2)c2ccccc21` show?
1

Bench note: what HepSE_jaundice did COc1cc(Br)c(C[N+]2(CCOCCC3CCC4CC3C4(C)C)CCOCC2)cc1OC.[Br-] (stereo not given) [PINAVERIUM BROMIDE] show?
0

###

In this section we review reported HepSE_Combined Scores values for a set of compounds.
Test system: Hepatotoxicity
Hey, just send me the number, nothing else.

Past entries and their recorded results:
COMPOUND	TEST_TARGET	HepSE_Combined Scores
CN(C)[C@@H]1C(O)=C(C(N)=O)C(=O)[C@@]2(O)C(O)=C3C(=O)c4c(O)ccc(Cl)c4[C@@H](O)[C@H]3C[C@@H]12	Hepatotoxicity	2
CC1=C(CC(=O)O)c2cc(F)ccc2/C1=C\c1ccc([S+](C)[O-])cc1 (stereo not given)	Hepatotoxicity	4
O=C1[C@H](CC[C@H](O)c2ccc(F)cc2)[C@@H](c2ccc(O)cc2)N1c1ccc(F)cc1	Hepatotoxicity	3
CCC(=O)[C@@]1(C)[C@H](C)C[C@H]2[C@@H]3CCC4=CC(=O)C=C[C@]4(C)[C@H]3[C@@H](O)C[C@@]21C [RIMEXOLONE]	Hepatotoxicity	0
Cc1onc(-c2ccccc2)c1C(=O)N[C@@H]1C(=O)N2[C@@H]1SC(C)(C)[C@@H]2C(=O)O	Hepatotoxicity	1
Nc1cc(-c2ccncc2)c[nH]c1=O	Hepatotoxicity	1
Cc1cccc(CN2CCN(C(c3ccccc3)c3ccc(Cl)cc3)CC2)c1 (stereo not given)	Hepatotoxicity	0
C[C@]12CC[C@@H]3c4ccc(O)cc4CC[C@H]3[C@@H]1CC[C@@H]2O	Hepatotoxicity	3
COCCCOc1ccnc(C[S+]([O-])c2nc3ccccc3[nH]2)c1C (stereo not given)	Hepatotoxicity	7
Clc1ccc(CSC(Cn2ccnc2)c2ccc(Cl)cc2Cl)cc1 (stereo not given)	Hepatotoxicity	0

Form field - read-out: HepSE_Combined Scores; system: Hepatotoxicity; submitted item: `CN1C(C(=O)Nc2ccccn2)=C(O)c2ccccc2S1(=O)=O`
3

Form field - read-out: HepSE_Combined Scores; system: Hepatotoxicity; submitted item: `CCOC(=O)c1ccc(C#Cc2ccc3c(c2)C(C)(C)CCS3)nc1`
0

Form field - read-out: HepSE_Combined Scores; system: Hepatotoxicity; submitted item: `CCCCCc1cc(O)c2c(c1)OC(C)(C)[C@@H]1CCC(C)=C[C@@H]21`
0

Form field - read-out: HepSE_Combined Scores; system: Hepatotoxicity; submitted item: C#CC1(O)CCC2C3CCC4=CC(=O)CCC4C3C(=C)CC21CC (stereo not given)
0
